Data credit: ChEMBL document CHEMBL3045768

Test system: Rattus norvegicus
Assay info: Toxicity inRattus norvegicus albino (rat) assessed as ulcerogenicity at 20 umol/kg, po qd for 3 days
Format: organism-based
Assay conditions: in vivo, 72 h
Property label: UI
Answers are plain numbers.

Example entries and their recorded answers appear below.
{"Molecule": "O=C(SCc1nc2c(c(=O)[nH]1)C1C(N3CCCC3)CCCCN1C(=O)N2c1ccccc1)c1ccccc1O (stereo not drawn)", "UI": 3.4}
{"Molecule": "O=C(Cc1ccccc1Nc1c(Cl)cccc1Cl)SCc1nc2c(c(=O)[nH]1)C1C(N3CCCC3)CCCCN1C(=O)N2c1ccccc1 (stereo not drawn)", "UI": 2.6}
{"Molecule": "O=C1N(c2ccccc2)c2nc(CCN3CCOCC3)[nH]c(=O)c2C2C(N3CCCC3)CCCCN12 (stereo not drawn)", "UI": 3.4}
{"Molecule": "O=C(O)CSCc1nc2c(c(=O)[nH]1)C1C(N3CCCC3)CCCCN1C(=O)N2c1ccccc1 (stereo not drawn)", "UI": 2.7}
{"Molecule": "O=C1N(c2ccccc2)c2nc(CN3CCOCC3)[nH]c(=O)c2C2C(N3CCCC3)CCCCN12 (stereo not drawn)", "UI": 4.3}
{"Molecule": "N#CC1=C(NC(=O)c2ccccc2O)N(c2ccccc2)C(=O)N2CCCCC(N3CCCC3)C12 (stereo not drawn)", "UI": 3.4}

Give one value of UI per listed molecule.
1. N#CC1=C(NC(=O)Cc2ccccc2Nc2c(Cl)cccc2Cl)N(c2ccccc2)C(=O)N2CCCCC(N3CCCC3)C12 (stereo not drawn)
2. O=C([O-])Cc1ccccc1Nc1c(Cl)cccc1Cl.[Na+] [DICLOFENAC SODIUM]

1. 4.1
2. 9
